# method.summary: Solubility of the compound in simulated gastric fluid after 0.5 hrs
# Format: physicochemical
readout.kind: solubility at 0.5 h

Please fill in: solubility at 0.5 h reported for CC[C@@H](NC(=O)c1ccc2c(c1)ncn2Cc1ncc(F)cc1F)c1ccccc1 = > 1000 µg/mL

====

# System: P-gp (human MDR1)
# method.summary: Permeability of the compound from apical to basolateral direction in dog MDCK2 expressing human MDR1 cells by PGP assay
# Format: ADME, cell-based, Canis lupus familiaris, MDCK-II
# condition: MDCK-MDR1, read-out: permeability
readout.kind: Papp A→B
Kindly write the number and append the unit.

Please fill in: Papp A→B reported for CC[C@@H](NC(=O)c1ccc2c(c1)ncn2Cc1ncc(F)cc1F)c1ccccc1 = 122 ×10⁻⁶ cm/s
